# tested target: PPARγ (Homo sapiens, UniProt P37231)
# Construct: The reporter is ERE-βGlob-Luc-SV-Neo
# Sequence (P37231 238-505 limits assumed): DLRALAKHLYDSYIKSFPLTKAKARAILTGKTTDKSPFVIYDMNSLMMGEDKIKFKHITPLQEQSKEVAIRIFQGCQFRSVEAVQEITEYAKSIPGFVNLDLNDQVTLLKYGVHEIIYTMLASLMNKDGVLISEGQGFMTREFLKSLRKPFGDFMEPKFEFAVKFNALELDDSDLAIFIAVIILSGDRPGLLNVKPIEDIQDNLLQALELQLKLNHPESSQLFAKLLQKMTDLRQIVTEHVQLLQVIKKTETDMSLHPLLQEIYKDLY
# assay explanation: Crossed-curve PPAR transactivation assay (PPARγ)
# condition context: HeLN cells stably transfected with ERE-βGlob-Luc-SV-Neo and Gal-hPPARγ; crossed curves against reference agonist, Schild regression; n.a. means not active; read-out: PPAR gamma Kd app
pKd: −log10 of the molar value.

smiles text | tested target | pKd
CCCCCCCNC(=O)N(C)c1cccc(-c2ccc(C[C@H](Nc3ccccc3C(=O)c3ccccc3)C(=O)NCCN(C)C)cc2)c1 | PPARγ (Homo sapiens, UniProt P37231) | 7.22
CCCCCCCNC(=O)N(C)c1cccc(-c2ccc(C[C@H](Nc3ccccc3C(=O)c3ccccc3)C(=O)N3CCN(C)CC3)cc2)c1 | PPARγ (Homo sapiens, UniProt P37231) | 7.52
CCCCCCCNC(=O)N(C)c1cccc(-c2ccc(C[C@H](Nc3ccccc3C(=O)c3ccccc3)C(=O)OCCCC)cc2)c1 | PPARγ (Homo sapiens, UniProt P37231) | 7.52
CCCCCCCNC(=O)N(C)c1cccc(-c2ccc(C[C@H](Nc3ccccc3C(=O)c3ccccc3)C(=O)N(Cc3ccccc3)Cc3ccccc3)cc2)c1 | PPARγ (Homo sapiens, UniProt P37231) | 8.10
CCCCCCCNC(=O)N(C)c1cccc(-c2ccc(C[C@H](Nc3ccccc3C(=O)c3ccccc3)C(=O)N(C)CCc3ccccc3)cc2)c1 | PPARγ (Homo sapiens, UniProt P37231) | 7.82
CCCCCCCNC(=O)N(C)c1cccc(-c2ccc(C[C@H](Nc3ccccc3C(=O)c3ccccc3)C(=O)N(C)Cc3ccccc3)cc2)c1 | PPARγ (Homo sapiens, UniProt P37231) | 7.52
CCCCCCCNC(=O)N(C)c1cccc(-c2ccc(C[C@H](Nc3ccccc3C(=O)c3ccccc3)C(=O)NCCCCC)cc2)c1 | PPARγ (Homo sapiens, UniProt P37231) | 7.52
CCCCCCCNC(=O)N(C)c1cccc(-c2ccc(C[C@H](Nc3ccccc3C(=O)c3ccccc3)C(=O)NCc3ccccn3)cc2)c1 | PPARγ (Homo sapiens, UniProt P37231) | 7.22
